System: Saccharomyces cerevisiae;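 also: PSI is a weighted mean of sequencing reads over stability bins, variants kept only with over 10 reads, mCherry proximal and sfGFP distal, peptide attached via GGGS linker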
Test: protein stability index of tFT-peptide fusion (C-terminal peptide) (PSI (0-1 scale)); higher = more stable (slower turnover)
Conditions: genetic background: wild type; temperature: 30 C
MEASURE_NAME: protein stability index
The answer should be a number; do not append a unit.

Lookup: // fetch Saccharomyces cerevisiae protein stability index for SPALSPCLRTGY
Found: 0.717

Lookup: Please give the result for PLPPDPPCPPPP too.
Found: 0.651

Lookup: Please give the result for SPPPPPVHPSSP too.
Found: 0.722

Lookup: Please give the result for AYQFLCFSGMIT too.
Found: 0.761

Lookup: Please give the result for PLPPPLPNPPPS too.
Found: 0.667

Lookup: Please give the result for PRSPLRYPPHCP too.
Found: 0.691

Lookup: Please give the result for IREQQKNQNHKE too.
Found: 0.642

Lookup: Please give the result for FFSCFFFSVLYR too.
Found: 0.377

Lookup: Please give the result for CYGFCVRTYPAI too.
Found: 0.684

Lookup: Please give the result for RFSMVVVERYSC too.
Found: 0.577
